As an illustration, consider measured Ki for molecules on mMC3R (Mus musculus, UniProt P33033).
Sequence (P33033 whole entry, looked up): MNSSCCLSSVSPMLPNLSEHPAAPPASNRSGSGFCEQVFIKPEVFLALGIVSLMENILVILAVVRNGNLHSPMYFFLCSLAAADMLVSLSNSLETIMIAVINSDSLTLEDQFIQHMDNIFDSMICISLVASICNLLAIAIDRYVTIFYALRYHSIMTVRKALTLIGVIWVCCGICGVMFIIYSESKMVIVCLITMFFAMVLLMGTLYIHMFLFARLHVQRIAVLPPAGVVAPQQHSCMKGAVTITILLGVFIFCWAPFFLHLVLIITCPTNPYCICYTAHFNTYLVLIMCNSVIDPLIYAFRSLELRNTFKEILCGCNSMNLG
Where a SMILES comes first, the peptide text is derived from it. [ ]: non-standard residue; d: D form. 2Nal = N[C@@H](Cc1ccc2ccccc2c1)C(=O)O; d2Nal = N[C@H](Cc1ccc2ccccc2c1)C(=O)O
Number in nM, nothing else.

CC(=O)N[C@H](Cc1ccc2ccccc2c1)C(=O)N[C@@H](CCCNC(=N)N)C(=O)N[C@@H](Cc1ccc2ccccc2c1)C(=O)N[C@@H](CCCNC(=N)N)C(N)=O [24 | MDE10-28, Ac-DNal(2’)-Arg-Nal(2’)-Arg-NH2] (Ac-[d2Nal]R[2Nal]R-NH2)    100
CC(=O)N[C@H](Cc1ccc2ccccc2c1)C(=O)N[C@@H](CCCNC(=N)N)C(=O)N[C@H](Cc1ccc2ccccc2c1)C(=O)N[C@@H](CCCNC(=N)N)C(N)=O [15 | COR2-93, Ac-DNal(2’)-Arg-DNal(2’)-Arg-NH2] (Ac-[d2Nal]R[d2Nal]R-NH2)    790

## Input Please report the recorded Ki for CC(=O)N[C@H](Cc1ccc2ccccc2c1)C(=O)N[C@H](Cc1ccc2ccccc2c1)C(=O)N[C@@H](Cc1c[nH]c2ccccc12)C(=O)N[C@H](CCCCN)C(N)=O [4 | COR1-29-2, Ac-DNal(2’)-DNal(2’)-Trp-DLys-NH2] (Ac-[d2Nal][d2Nal]W[dK]-NH2) .
## Output 1600

## Input Please report the recorded Ki for CC(=O)N[C@H](Cc1ccc2ccccc2c1)C(=O)N[C@@H](CCCNC(=N)N)C(=O)N[C@H](Cc1ccc(I)cc1)C(=O)N[C@H](CCCCN)C(N)=O .
## Output 130
